# target-or-test-system: T1, human NPR1-ANP complex (human, UniProt P01160 124-151, limits assumed)
# T1 construct: Receptor antigen measured in the presence of ANP; also called hNPR1 + ANP; hNPR1-ANP-complex
# T1 sequence: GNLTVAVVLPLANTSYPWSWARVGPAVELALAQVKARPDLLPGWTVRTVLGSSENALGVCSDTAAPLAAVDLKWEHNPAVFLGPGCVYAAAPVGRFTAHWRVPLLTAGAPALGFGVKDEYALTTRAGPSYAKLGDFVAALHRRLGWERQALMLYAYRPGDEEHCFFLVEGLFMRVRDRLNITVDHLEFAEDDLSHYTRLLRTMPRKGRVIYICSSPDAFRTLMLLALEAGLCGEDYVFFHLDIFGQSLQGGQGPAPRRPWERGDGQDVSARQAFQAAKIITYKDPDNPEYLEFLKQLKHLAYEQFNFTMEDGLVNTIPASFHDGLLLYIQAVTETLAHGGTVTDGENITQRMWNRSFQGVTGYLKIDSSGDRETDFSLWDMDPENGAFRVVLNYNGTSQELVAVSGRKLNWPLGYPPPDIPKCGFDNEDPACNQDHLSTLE
# T1 sequence (peptide): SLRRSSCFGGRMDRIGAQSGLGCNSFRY
# test-summary: ELISA, 1 uM IgG, +100 nM ANP
binders and their reported ELISA IgG binding at 1 uM IgG (unit not given)
Simply state the number, no unit and no words.

YY04 IgG (YY04_LALA) (antibody, V domains shown) VH: EVQLVESGGGLVKPGGSLRLSCAASGFTFSNYWISWVRQAPGKGLEWVGRIKSKTYGGTTDYAEPVKGRFTISRDDSKNTLYLQMNSLKTEDTAVYYCAREKYSIRARGHGDYGFDVWGQGTLVTVSS VL: DIQMTQSPSSLSASVGDRVTITCRASQGISNYLAWYQQKPGKVPKLLIYAASTLQSGVPSRFSGSGSGTDFTLTISSLQPEDVATYYCQQGYHAPFTFGQGTKVEIKR    60

In the following, a different binder is considered.
YY05 IgG (YY05_LALA) (antibody, V domains shown) VH: EVQLVQSGAEVKKPGESLKISCKGSGYSFTSYWISWVRQMPGKGLEWMGIIYPGTSYTRYSPSFQGQVTISADKSISTAYLQWSSLKASDTAMYYCARGAVAGQLGFDHWGQGTLVTVSS VL: QSVLTQPPSVSGAPGQRVTISCTGSSSNIGAGYDVHWYQQLPGTAPKLLIYGNSNRPSGVPDRFSGSKSGTSASLAITGLQAEDEADYYCQSYYTSSHGPVFGGGTKLTVLG yielded ELISA IgG binding at 1 uM IgG (unit not given) of 32

Measured values drawn from patent US20200392225A1 for this set.
